Reported Solubility in water values are given for each entry in this list.
# testDescription: Solubility in water at 25° C. and 1 atm
# conditionSet: second liquid; 25° C. and 1 atm
A number alone suffices; assume mass %.

Return value of Solubility in water for input COCC(C)OC(C)=O (stereo not drawn) [Second liquid example (25)] , no commentary. 20.5

Return value of Solubility in water for input C1OCOCO1 [Second liquid example (6), 1,3,5-trioxane] , no commentary. 21.1

Return value of Solubility in water for input CCCC(C)=O [Second liquid example (8), 2-pentanone] , no commentary. 5.9

Return value of Solubility in water for input COCOC [Second liquid example (2), dimethoxymethane] , no commentary. 32.3

Return value of Solubility in water for input CCCCOCC(C)O (stereo not drawn) [Second liquid example (24), propylene glycol monobutyl ether] , no commentary. 6.4

Next item in the queue.
Return value of Solubility in water for input CCCCOCC(C)O (stereo not drawn) [Second liquid example (13), propylene glycol n-butyl ether] , no commentary. 6.0

---

# testDescription: Solubility in water at 25° C. and 1 atm
# conditionSet: first liquid; 25° C. and 1 atm
# Experimental: In the method for producing an electrophotographic photosensitive member of the present invention, the charge transporting substance and the binder resin are dissolved in the first liquid to prepare the first solution. […] Specific examples of the first liquid are shown in Table 1, but are not limited to the examples in Table 1. Then, the second solution will be described.
Reported Solubility in water values are given for each entry in this list.
A number alone suffices; assume mass %.

Known results for compounds:
Return value of Solubility in water for input CCOc1ccccc1 [First liquid example (7), Phenetole] , no commentary. 0.1

Return value of Solubility in water for input Clc1ccccc1 [First liquid example (4), Chlorobenzene] , no commentary. 0.1

Return value of Solubility in water for input Cc1ccccc1C [First liquid example (5), o-Xylene] , no commentary. 0.0

New cases:
Return value of Solubility in water for input CCc1ccccc1 [First liquid example (6), Ethylbenzene] , no commentary. 0.0
